Hello, the source for this data is ChEMBL document CHEMBL4513216, in case you need it.

System: Plasmodium berghei
Assay: Screen against P. berghei liver stage (PbLuc), transformed with Luciferase, at 10uM
Type: functional, HepG2
Conditions: tested at 10 uM
Among all 69,000 compounds or so, about 8,600 (12%) showed an effect of 50% or more. For the sample, strong results were picked, then their nearest neighbours and some compounds at random.
Quantity Name: INHIBITION
Please state the number and follow it with the unit.

See these solved cases before continuing.
CNC(=O)CN([C@H]1C[C@H]2CCOC[C@H]2C1)S(=O)(=O)c1ccccc1 ... 19.2%
O=C(NC1CC1)[C@@H]1CN(Cc2ccc3c(c2)OCO3)C[C@H]2OCC[C@H]21 ... 13.7%
c1cc(N2CCCC2c2cnccn2)ncn1 (stereo unspecified) ... -3.31%
Fc1ccc(CN2CCOCC3(CCN(Cc4nccs4)C3)C2)cc1 (stereo unspecified) ... 7.24%
O=C(CCCc1nnc(-c2ccccc2)o1)N1CCC1 ... 28.8%

Shift focus to the following entry.
INPUT: Specify INHIBITION for `CN(C)S(=O)(=O)c1ccc2c(c1)N(Cc1nccn1C)CCC2` , system Plasmodium berghei.
OUTPUT: 41.4%

----------
System: Plasmodium berghei
Assay: Screen against P. berghei liver stage (PbLuc), transformed with Luciferase, at 10uM
Format: functional, HepG2
Conditions: tested at 10 uM
About 8,600 (12%) of roughly 69,000 compounds showed an effect of 50% or more. For the sample, strong results were picked, then their nearest neighbours and some compounds at random.
Label scheme, based on INHIBITION: zone 1: < 10%; zone 2: ≥ 10% and < 40%; zone 3: ≥ 40%

O=C(Cc1ccccc1F)NCC1CCN(CCN2CCOCC2)C1 (configuration not stated) ... zone 3
O=C(Cc1ccccc1F)NCC1CCN(CCc2ccccc2)C1 (configuration not stated) ... zone 2
Cc1nc(NC(=O)NC(CS(C)(=O)=O)c2ccccc2)sc1C (configuration not stated) ... zone 2
O=C1CCC(=O)N1c1nn(Cc2cccc(F)c2)cc1Cl ... zone 2
CN(CC(=O)NS(=O)(=O)c1cccs1)Cc1ccccc1 ... zone 2

INPUT: Class? Entry: `Cc1cc(Cl)ccc1C(=O)N1C[C@H](C2CC2)[C@@H](N)C1`
OUTPUT: zone 2

INPUT: Class? Entry: `CN(CCOc1ccc(Br)cc1)Cc1cscn1`
OUTPUT: zone 1

INPUT: Class? Entry: `Cc1c(C(=O)NCCCS(C)(=O)=O)cccc1-c1ccccn1`
OUTPUT: zone 1

INPUT: Class? Entry: O=C(NCCC1CCCCO1)c1cc(COc2ccccc2F)[nH]n1 (configuration not stated)
OUTPUT: zone 2

INPUT: Class? Entry: O=C(NCCCN1CCOCC1)C(OC1CCCC1)c1ccccc1 (configuration not stated)
OUTPUT: zone 1

INPUT: Class? Entry: `Cc1cccc(S(=O)(=O)NC(=O)CN(C)Cc2ccccc2)c1`
OUTPUT: zone 3

INPUT: Class? Entry: CN1CCN(CCNC(=O)C(OC2CCCC2)c2ccccc2)CC1 (configuration not stated)
OUTPUT: zone 2

----------
Test system: Plasmodium berghei
Experiment: Screen against P. berghei liver stage (PbLuc), transformed with Luciferase, at 10uM
Type: functional, HepG2
Conditions: tested at 10 uM
Hit rate of the full screen: of about 69,000 compounds, about 8,600 (12%) showed an effect of 50% or more. The full list was thinned out, with strong results kept by preference.
# INHIBITION per record follows
Provide only the numeric value, understood in %.

O=C(CC1CC1)NCc1cn2c(n1)CN(Cc1cccnc1)CC2 ... 33.4
Cc1cc(CN2CCN(C(=O)NC(C)c3cccnc3)CC2)no1 (centres undefined) ... 7.15
Cc1nc(CN2CCC3(CCN(Cc4nccn4C)CC3)C2=O)cs1 ... -11.2
CC(Cn1ccnc1)NC(=O)NCCN1CCCCCC1=O (centres undefined) ... 5.29
O=C(NCc1cn2c(n1)CN(Cc1cccc(F)c1)CC2)C1CCC1 ... -14.4

INPUT: Give recorded INHIBITION. `CC(C)c1ccc(OCCC(=O)N2CCCN(C(N)=O)CC2)cc1`
OUTPUT: -4

INPUT: Give recorded INHIBITION. CC(=O)NCCNC(=O)CNC1CCCN(c2ccc(C)nn2)C1 (centres undefined)
OUTPUT: 47

INPUT: Give recorded INHIBITION. CCC(=O)Nc1ccc(OCC(=O)N(C)C(C)c2ccon2)cc1 (centres undefined)
OUTPUT: 10.7

INPUT: Give recorded INHIBITION. `O=C(CC1CC1)NCc1cn2c(n1)CN(Cc1cccc(F)c1)CC2`
OUTPUT: 50.9

INPUT: Give recorded INHIBITION. `CCn1cc(NC(=O)N2CCN(CCSc3ccccc3)CC2)cn1`
OUTPUT: -32.35
